Assign inhibition at 50 µM to each entry below.
# test system: human fascin 1 (Homo sapiens, UniProt Q16658)
# Construct: GST (N, cleaved yes); made in house; host or cells: Escherichia coli BL21/DE3 (pGEX4T-fascin 1 plasmid)
# method notes: Fascin inhibition (actin bundling) assay, image-based
# Type: biochemical
# recorded conditions: in the presence of 50 μm of the compound relative to bundle activity when the compound was not present; read-out: Inhibition (percentage reduction of bundle activity)
Answer with a number only, understood to be in %.

inhibition at 50 µM reported for this compound `Cc1occc1C(=O)Nc1nn(Cc2ccc(C(F)(F)F)cc2)c2cncc(Cl)c12` : 10

inhibition at 50 µM reported for this compound `Cc1ccc(Cn2nc(NC(=O)c3ccno3)c3ccccc32)cc1` : 50

inhibition at 50 µM reported for this compound `O=C(Nc1nn(Cc2ccc(F)cc2)c2ccccc12)c1ccno1` : 50

---

# test system: human fascin 1 (Homo sapiens, UniProt Q16658)
# Construct: GST (N, cleaved yes); made in house; host or cells: Escherichia coli BL21/DE3 (pGEX4T-fascin 1 plasmid)
# method notes: Fascin inhibition (actin bundling) assay, image-based
# Format: biochemical
# recorded conditions: in the presence of 50 μm of the compound relative to bundle activity when the compound was not present; read-out: Inhibition (percentage reduction of bundle activity)
reported property: inhibition at 50 µM

inhibition at 50 µM reported for this compound `COc1cscc1C(=O)Nc1nn(Cc2ccc(C(F)(F)F)cc2)c2ccccc12` : < 10%

inhibition at 50 µM reported for this compound `Cc1occc1C(=O)Nc1nn(Cc2ccc(C(F)(F)F)cc2)c2c(C(F)(F)F)cccc12` : < 10%

inhibition at 50 µM reported for this compound `Cc1nocc1C(=O)Nc1nn(Cc2ccc(C(F)(F)F)nc2)c2ccccc12` : < 10%

inhibition at 50 µM reported for this compound `Cc1occc1C(=O)Nc1nn(Cc2ccc(Cl)cc2)c2ccccc12` : 50%

inhibition at 50 µM reported for this compound `Cc1csc(C(=O)Nc2nn(Cc3ccc(C(F)(F)F)cc3)c3ccccc23)n1` : < 10%

inhibition at 50 µM reported for this compound `O=C(Nc1nn(Cc2ccc(C(F)(F)F)cc2)c2c(C(F)(F)F)cccc12)c1ccoc1` : < 10%

inhibition at 50 µM reported for this compound `Cc1occc1-c1nn(Cc2ccc(C(F)(F)F)cc2)c2ccccc12` : 10%

inhibition at 50 µM reported for this compound `Cc1ncsc1C(=O)Nc1nn(Cc2ccc(C(F)(F)F)nc2)c2ccccc12` : < 10%

inhibition at 50 µM reported for this compound O=C(Nc1n[nH]c2ccccc12)c1ccoc1 [Compound 62, N-(1H-indazol-3-yl)furan-3 carboxamide] : < 10%

inhibition at 50 µM reported for this compound `O=C(Nc1nn(Cc2ccc(CO)cc2)c2ccccc12)c1ccoc1` : < 10%

inhibition at 50 µM reported for this compound `O=C(Nc1nn(Cc2ccc(C(F)(F)F)cc2)c2ccccc12)c1cnc[nH]1` : < 10%

inhibition at 50 µM reported for this compound `Cc1ccc(Cn2nc(N)c3ccccc32)cc1` : < 10%

inhibition at 50 µM reported for this compound `O=C(Nc1nn(Cc2ccc(C(F)(F)F)cc2)c2ccc(C(F)(F)F)cc12)c1ccoc1` : < 10%

inhibition at 50 µM reported for this compound `O=C(Nc1nn(Cc2ccc(C(F)(F)F)nc2)c2ccccc12)c1cccnn1` : < 10%

inhibition at 50 µM reported for this compound `FC(F)(F)c1ccc(Cn2nc(-c3ccoc3)c3ccccc32)cc1` : 10%

inhibition at 50 µM reported for this compound `Nc1nn(Cc2ccc(C(F)(F)F)cc2)c2cccc(Cl)c12` : < 10%

inhibition at 50 µM reported for this compound `Nc1nn(Cc2ccc(F)cc2)c2ccccc12` : < 10%

inhibition at 50 µM reported for this compound `O=C(Nc1nn(Cc2ccc(Cl)cc2)c2ccccc12)c1cccnn1` : 50%

inhibition at 50 µM reported for this compound `Cc1ccc(Cn2nc(NC(=O)c3ccoc3C)c3ccccc32)cc1` : < 10%

inhibition at 50 µM reported for this compound `Cc1occc1C(=O)Nc1nn(Cc2ccc(C(F)(F)F)cc2)c2ccc(C(F)(F)F)cc12` : < 10%

inhibition at 50 µM reported for this compound `O=C(Nc1nn(Cc2ccc(C(F)(F)F)cc2)c2ccccc12)c1cccc(Cl)n1` : < 10%

---

# test system: human fascin 1 (Homo sapiens)
# Construct: GST (N, cleaved yes); made in house; host or cells: Escherichia coli BL21/DE3 (pGEX4T-fascin 1 plasmid)
# method notes: Fascin inhibition (actin bundling) assay, image-based
# Type: biochemical
# recorded conditions: in the presence of 50 μm of the compound relative to bundle activity when the compound was not present; read-out: Inhibition (percentage reduction of bundle activity)
Assign inhibition at 50 µM to each entry below.

# lookup: `O=C(Nc1nn(Cc2ccccc2)c2ccccc12)c1ccoc1` on human fascin 1 (Homo sapiens), inhibition at 50 µM = < 10%

# lookup: `Cc1occc1C(=O)Nc1nn(Cc2ccc(C(F)(F)F)nc2)c2ccc(C#N)cc12` on human fascin 1 (Homo sapiens), inhibition at 50 µM = < 10%

# lookup: `Cc1ccoc1C(=O)Nc1nn(Cc2ccc(C(F)(F)F)cc2)c2ccccc12` on human fascin 1 (Homo sapiens), inhibition at 50 µM = < 10%

Provenance of the data: patent US10227345B2
